Field: GI50. Provide a value for each of the compounds that follow.
# Test system: PC-3
# Experiment: Antiproliferative activity against human PC3 cells after 96 hrs by MTT assay
# Type: functional
# Condition Set: PC-3, 96 h
Hi! Could you send only the number? It should be in µM, unit omitted.

# lookup: GI50 of "C[C@H]1[C@H](C)CC[C@]2(C)CC[C@]3(C)C(=CC(=O)[C@@H]4[C@@]5(C)C/C(=C\c6ccc(C(=O)O)cc6)C(=O)[C@](C)(C(=O)OCc6ccccc6)[C@@H]5CC[C@]43C)[C@H]12"
32.1

# lookup: GI50 of "C[C@H]1[C@H](C)CC[C@]2(C)CC[C@]3(C)C(=CC(=O)[C@@H]4[C@@]5(C)C/C(=C\C(=O)O)C(=O)[C@](C)(C(=O)OCc6ccccc6)[C@@H]5CC[C@]43C)[C@H]12"
1.82
